Hello, the source for this data is PubChem BioAssay AID463173, in case you need it.

I'd be grateful if you could share measured survival for these entries.
System: DeltatarO mutant
Assay: S. aureus survival, RN4220 and DeltatarO strains – OD600, teichoic acid synthesis inhibitors, primary screen (AID 463173)
Details: S. aureus RN4220 wild type/DeltatarO growth, OD600, 18 h, hits give low values, screened at 18.75 µg/mL (by protocol)
In all, about 52,000 compounds went through this assay and about 4,300 (8.3%) were called active. What follows is part of a selection rich in actives, with near analogues and random picks from the rest.
Give bare numbers, in %.

Solved cases (4 shown):
| molecule | tested on | unit spec | quantitative result |
| --- | --- | --- | --- |
| CCCCC(=O)Nc1cc(-c2nc3ccccc3o2)ccc1OC | DeltatarO mutant | % | 7 |
| CCC(C)[C@@H](C(=O)Nc1ccc(C)cc1)N1Cc2ccccc2C1=O (stereo partly specified) | DeltatarO mutant | % | 74 |
| Cc1ccc(S(=O)(=O)N2CC=C(c3ccc(F)cc3)CC2)cc1 | DeltatarO mutant | % | 87 |
| COc1cc(CNC(=O)c2ccc3c(c2)N(C)C(=O)C2CCCCN32)cc(OC)c1OC (stereo unspecified) | DeltatarO mutant | % | 69 |

For every listed record, write down its survival.
1. COc1ccc(C2=NN(C(=O)CCC(=O)O)C(c3ccccc3F)C2)cc1OC (stereo unspecified)
2. COc1ccc(S(=O)(=O)N(C)C2CCCCC2)cc1
3. COc1ccc(Cn2ccc3nc(C)c(C(=O)Nc4ccc(OC)cc4)cc3c2=O)cc1
4. COc1ccc(Cn2ccc3nc(C)c(C(=O)Nc4ccc(F)cc4)cc3c2=O)cc1
5. CCOC(=O)c1ccc(NC(=O)c2csnn2)cc1

[reply]
1. 89
2. 85
3. 89
4. 20
5. 104

For every listed record, write down its survival.
1. COc1ccc(NC(=O)c2cc3c(=O)n(Cc4cccnc4)ccc3nc2C)c(OC)c1
2. COc1ccc(N2CCN(Cc3nc4c(c(=O)[nH]c(=O)n4C)n3Cc3ccccc3F)CC2)cc1
3. CNC(=S)N1C2CCC1CC(NC(=O)NC13CC4CC(CC(C4)C1)C3)C2 (stereo unspecified)
4. CCOc1ccc(NC(=O)Cn2c(=O)n(-c3ccccc3)c(=O)c3ccc(C(=O)NCc4ccc5c(c4)OCO5)cc32)cc1
5. CCOC(=O)c1c(C)oc2c1c(O)c(N=O)c1ccccc12
6. CC(C)Oc1ccc(C(=O)Nc2nnc3n2CCS3)cc1

[reply]
[83, 119, 79, 107, 18, 124]

For every listed record, write down its survival.
1. CCOC(=O)c1c(C)oc2ncnc(N3CCN(c4ccccc4)CC3)c12
2. COc1ccc(Cn2ccc3nc(C)c(C(=O)NCc4ccc(OC)cc4OC)cc3c2=O)cc1

[reply]
1. 89
2. 25

###

Tested on: DeltatarO mutant
Assay: S. aureus survival, RN4220 and DeltatarO strains – OD600, teichoic acid synthesis inhibitors, primary screen (AID 463173)
Conditions: S. aureus RN4220 wild type/DeltatarO growth, OD600, 18 h, hits give low values, screened at 18.75 µg/mL (by protocol)
Hit rate of the full screen: of about 52,000 compounds, about 4,300 (8.3%) were called active. The sample holds actives, similar compounds and a random draw of the others, so the mix is not that of the screen.
Decide using survival alone. Strictly below 80%: label 1. Equal to or above 80%: label 0.

Field: example entries. Status: answers known.
| molecule | tested on | label class |
| --- | --- | --- |
| COc1ccc(C2=C(C)C(=O)N(Cc3ccc(C(=O)NC(C)c4ccccc4)cc3)S2(=O)=O)cc1 (stereo not given) | DeltatarO mutant | label 0 |
| CCCCC(CC)CNC(=O)c1ccc(Cn2c(=O)[nH]c3cc(OC)c(OC)cc3c2=O)cc1 (stereo not given) | DeltatarO mutant | label 1 |
| COc1ccc(OC)c(C2C(C(N)=O)=C(C)Nc3nc(-c4cccc(Cl)c4)nn32)c1 (stereo not given) | DeltatarO mutant | label 0 |
| CC(=O)Nc1ccc(-n2cc3c(c2-c2ccc(C)cc2)c(=O)n(C)c(=O)n3C)cc1 | DeltatarO mutant | label 0 |
| COc1ccc(NC(=O)c2sc3nc4c(cc3c2N)CCCCCC4)c(OC)c1 | DeltatarO mutant | label 1 |
| CCC(C)NC(=O)Cn1ccc2cc(S(=O)(=O)N3CCCCCC3)ccc21 (stereo not given) | DeltatarO mutant | label 0 |

[ask] Does the reported survival of `CCOc1ccccc1NC(=O)COc1ccc(S(=O)(=O)NC2CCCCC2)cc1` stay below 80%?
[reply] label 1

[ask] Does the reported survival of `COc1ccc(NC(=O)COc2ccc(S(=O)(=O)NC3CCCCC3)cc2)c(OC)c1` stay below 80%?
[reply] label 1

###

System: DeltatarO mutant
Assay: S. aureus survival, RN4220 and DeltatarO strains – OD600, teichoic acid synthesis inhibitors, primary screen (AID 463173)
Settings: S. aureus RN4220 wild type/DeltatarO growth, OD600, 18 h, hits give low values, screened at 18.75 µg/mL (by protocol)
Out of some 52,000 compounds screened, about 4,300 (8.3%) were called active. Only a selection was taken, and actives are over-represented in it overall.
Decide using survival alone. Strictly below 70%: Satisfied. Equal to or above 70%: Not satisfied.

Field: example entries. Status: answers known.
| compound | label class |
| --- | --- |
| Cc1ccc(C)c(N2CCN(CCCNC(=O)Nc3ccc(Cl)cc3)CC2)c1 | Satisfied |
| CCOc1ccc(NC(=O)NCCN2CCN(c3cc(Cl)ccc3C)CC2)cc1 | Satisfied |
| Cc1ccccc1NC(=O)C(=O)NCC1(c2ccccc2)CCCC1 | Not satisfied |
| O=C(NCCCN1CCCCC1)c1ccc2c(c1)sc1nc(-c3ccc(F)cc3)cn12 | Satisfied |
| CCC(=O)N1c2ccccc2CC1C(=O)NCCN1CCN(c2cccc(Cl)c2)CC1 (stereo not given) | Not satisfied |

[ask] Does the reported survival of `Cc1ccc(Cl)cc1N1CCN(CCNC(=O)Nc2ccccc2Cl)CC1` stay below 70%?
[reply] Not satisfied

[ask] Does the reported survival of `Cc1cccc(N2CCN(CCNC(=O)Nc3ccc(Cl)cc3)CC2)c1C` stay below 70%?
[reply] Satisfied

[ask] Does the reported survival of CCc1c(C)sc2c1CCN(C(=O)Nc1ccccc1C(=O)OC)C2c1ccc(OC)cc1 (stereo not given) stay below 70%?
[reply] Not satisfied

[ask] Does the reported survival of `Cc1ccc(Cl)cc1N1CCN(CCNC(=O)Nc2ccc(Cl)cc2)CC1` stay below 70%?
[reply] Satisfied

###

Test system: DeltatarO mutant
Experiment: S. aureus survival, RN4220 and DeltatarO strains – OD600, teichoic acid synthesis inhibitors, primary screen (AID 463173)
Conditions: S. aureus RN4220 wild type/DeltatarO growth, OD600, 18 h, hits give low values, screened at 18.75 µg/mL (by protocol)
Hit rate of the full screen: of about 52,000 compounds, about 4,300 (8.3%) were called active. What follows is part of a selection rich in actives, with near analogues and random picks from the rest.
readout name: survival (%)
Give bare numbers, in %.

Solved cases (6 shown):
| compound | tested on | readout name | unit spec | quantitative result |
| --- | --- | --- | --- | --- |
| Cc1ccccc1NS(=O)(=O)c1ccc2[nH]cc(C(=O)NC(C)c3ccccc3)c(=O)c2c1 (centres undefined) | DeltatarO mutant | survival | % | 90 |
| CC(C)CCNC(=O)c1c[nH]c2ccc(S(=O)(=O)Nc3cccc(C(F)(F)F)c3)cc2c1=O | DeltatarO mutant | survival | % | 74 |
| CN(C(=O)c1c[nH]c2ccc(S(=O)(=O)Nc3cccc(C(F)(F)F)c3)cc2c1=O)C1CCCCC1 | DeltatarO mutant | survival | % | 72 |
| CCCn1c2ccccc2c2cnn(CC(=O)NC(CCSC)C(=O)OC)c(=O)c21 (centres undefined) | DeltatarO mutant | survival | % | 124 |
| Cc1ccc(CN(Cc2cccn2-c2nnc(N3CCCC3=O)s2)C(=O)Nc2cc(C)cc(C)c2)cc1 | DeltatarO mutant | survival | % | 123 |
| COc1cccc(NS(=O)(=O)c2ccc3[nH]cc(C(=O)NCCc4ccccc4)c(=O)c3c2)c1 | DeltatarO mutant | survival | % | 83 |

For every listed record, write down its survival.
1. O=C(NC1CCCC1)c1c[nH]c2ccc(S(=O)(=O)Nc3cccc(C(F)(F)F)c3)cc2c1=O
2. O=C(c1ccc(Cl)cc1)N1CCCCC1CCN1CCOCC1 (centres undefined)
3. CC1=C(c2ccc(C)c(C)c2)S(=O)(=O)N(Cc2ccc(C(=O)NCc3cccc(C)c3)cc2)C1=O

[reply]
1. 16
2. 104
3. 77

###

Test system: DeltatarO mutant
Experiment: S. aureus survival, RN4220 and DeltatarO strains – OD600, teichoic acid synthesis inhibitors, primary screen (AID 463173)
Conditions: S. aureus RN4220 wild type/DeltatarO growth, OD600, 18 h, hits give low values, screened at 18.75 µg/mL (by protocol)
The whole screen tested about 52,000 compounds, of which about 4,300 (8.3%) were called active. What follows is part of a selection rich in actives, with near analogues and random picks from the rest.
Decide using survival alone. Strictly below 70%: criterion met. Equal to or above 70%: criterion not met.

| smiles | label class |
| --- | --- |
| COc1ccc(CNC(=O)Cc2coc3ccc(C)cc23)cc1 | criterion not met |
| COc1ccc(CNC(=O)c2cc3cc(OC)ccc3oc2=O)cc1 | criterion met |
| COc1ccc(CNC(=O)c2cc(=O)c3cc(C)ccc3o2)cc1 | criterion met |
| Cc1ccc2c(=O)cc(C(=O)NCc3ccccc3)oc2c1 | criterion met |
| CCc1ccc2oc(C(=O)NCc3ccccc3)cc(=O)c2c1 | criterion met |

[ask] Does the reported survival of `Cc1ccc(CNC(=O)c2cc(=O)c3cc(C)c(C)cc3o2)cc1` stay below 70%?
[reply] criterion not met
